- Tested on: SJSA-1 (Osteosarcoma)
- experimental-protocol: Bliss excess, mean over the matrix (fraction); higher = more synergy
Outcome: fulfilled for Bliss excess of at least -0.03; not fulfilled for anything lower.

Incoming: Bliss excess >= -0.03 for CN(CCO)CC[C@H](CSc1ccccc1)Nc1ccc(S(=O)(=O)NC(=O)c2ccc(N3CCC([C@@H](O)c4ccccc4-c4ccc(Cl)cc4)CC3)cc2)cc1S(=O)(=O)C(F)(F)F [AZD4320] + C=CCn1c(=O)c2cnc(Nc3ccc(N4CCN(C)CC4)cc3)nc2n1-c1cccc(C(C)(C)O)n1 [AZD1775] (first compound max 1 µM, partner max 1 µM) ?
Outgoing: not fulfilled

Incoming: Bliss excess >= -0.03 for CN(C)CCCOc1ccc(-c2ccc3ncc4c(c3c2)n(C2CCOCC2)c(=O)n4C)cn1 [AZD0156] + C[C@@H]1COCCN1C2=NC(=NC(=C2)C3(CC3)[S@](=N)(=O)C)C4=C5C=CNC5=NC=C4 [AZD6738] (first compound max 1 µM, 7x7, partner max 10 µM) ?
Outgoing: fulfilled

Incoming: Bliss excess >= -0.03 for O=C(c1cc(Cc2n[nH]c(=O)c3ccccc23)ccc1F)N1CCN(C(=O)C2CC2)CC1 [Olaparib] + COc1nnc2ccc(N3CCC(c4ccc(OCCN5CCN(C)C(=O)[C@H]5C)cc4)CC3)nn12 [AZD5153] (first compound max 10 µM, 7x7, partner max 1 µM) ?
Outgoing: not fulfilled

Incoming: Bliss excess >= -0.03 for Cc1c2c(nn1C)CSCc1cc(n(C)n1)CSc1cc(c3ccccc3c1)OCCCc1c(C(=O)O)n(C)c3c-2c(Cl)ccc13 [AZD5991] + CCN(CCO)CCCOc1ccc2c(Nc3cc(CC(=O)Nc4cccc(F)c4)[nH]n3)ncnc2c1 [AZD2811] (first compound max 1 µM, 7x7, partner max 1 µM) ?
Outgoing: fulfilled

Incoming: Bliss excess >= -0.03 for CS(=O)(=O)CCNCc1ccc(-c2ccc3ncnc(Nc4ccc(OCc5cccc(F)c5)c(Cl)c4)c3c2)o1 [Lapatinib] + C[C@@H](Oc1cc(-c2cnn(C3CCNCC3)c2)cnc1N)c1c(Cl)ccc(F)c1Cl [Crizotinib] (first compound max 10 µM, 7x7, partner max 10 µM) ?
Outgoing: fulfilled

Incoming: Bliss excess >= -0.03 for COc1cccc(OCCCN)c1-c1cc(Nc2cnc(C#N)cn2)n[nH]1 [Prexasertib] + CCc1c2c(nc3ccc(O)cc13)-c1cc3c(c(=O)n1C2)COC(=O)[C@]3(O)CC [SN-38] (first compound max 1 µM, 7x7, partner max 0.3 µM) ?
Outgoing: not fulfilled

Incoming: Bliss excess >= -0.03 for Cc1cc2ncnn2cc1Nc1ncc2c(n1)n(C1CCOCC1)c(=O)n2C [AZD7648] + CN(C)CCCOc1ccc(-c2ccc3ncc4c(c3c2)n(C2CCOCC2)c(=O)n4C)cn1 [AZD0156] (first compound max 10 µM, 7x7, partner max 1 µM) ?
Outgoing: not fulfilled

* * *

- Test system: KY821 (Acute Myeloid Leukemia)
- experimental-protocol: Bliss excess, mean over the matrix (fraction); higher = more synergy
Some molecules, each annotated with its measured Bliss excess.

Incoming: Give the measured Bliss excess for CN(CCO)CC[C@H](CSc1ccccc1)Nc1ccc(S(=O)(=O)NC(=O)c2ccc(N3CCC([C@@H](O)c4ccccc4-c4ccc(Cl)cc4)CC3)cc2)cc1S(=O)(=O)C(F)(F)F [AZD4320] + C[C@@H](Nc1cc(F)cc(F)c1)c1cc(C(=O)N(C)C)cc2c(=O)cc(N3CCOCC3)oc12 [AZD8186] (first compound max 1 µM, 7x7, partner max 3 µM)
Outgoing: 0.0053

Incoming: Give the measured Bliss excess for NC1(C(=O)N[C@@H](CCO)c2ccc(Cl)cc2)CCN(c2ncnc3[nH]ccc23)CC1 [Capivasertib] + Cn1cnc2c(F)c(Nc3ccc(Br)cc3Cl)c(C(=O)NOCCO)cc21 [Selumetinib] (first compound max 10 µM, 7x7, partner max 10 µM)
Outgoing: 0.0177

* * *

- Test system: M059J (Glioblastoma)
- experimental-protocol: Bliss excess, mean over the matrix (fraction); higher = more synergy
Some molecules, each annotated with its measured Bliss excess.
Answer with the value's number alone.

INSERT INTO measurements (molecule, reported_result) VALUES
  ('Cn1cnc2c(F)c(Nc3ccc(Br)cc3Cl)c(C(=O)NOCCO)cc21 [Selumetinib] + CC(C)n1c(=O)n(C)c2cnc3cc(F)c(-c4ccc(OCCCN5CCCCC5)nc4)cc3c21 [AZD1390] (first compound max 10 µM, 7x7, partner max 0.3 µM)', -0.0375),
  ('O=C(c1cc(Cc2n[nH]c(=O)c3ccccc23)ccc1F)N1CCN(C(=O)C2CC2)CC1 [Olaparib] + COc1nnc2ccc(N3CCC(c4ccc(OCCN5CCN(C)C(=O)[C@H]5C)cc4)CC3)nn12 [AZD5153] (first compound max 10 µM, 7x7, partner max 1 µM)', -0.0672),
  ('CC1(C)CCC(CN2CCN(c3ccc(C(=O)NS(=O)(=O)c4ccc(NCC5CCOCC5)c([N+](=O)[O-])c4)c(Oc4cnc5[nH]ccc5c4)c3)CC2)=C(c2ccc(Cl)cc2)C1 [Venetoclax] + C[C@@H](Nc1cc(F)cc(F)c1)c1cc(C(=O)N(C)C)cc2c(=O)cc(N3CCOCC3)oc12 [AZD8186] (first compound max 1 µM, 7x7, partner max 3 µM)', -0.0141),
  ('C[C@@H](Oc1cc(-c2cnn(C3CCNCC3)c2)cnc1N)c1c(Cl)ccc(F)c1Cl [Crizotinib] + Cn1cnc2c(F)c(Nc3ccc(Br)cc3Cl)c(C(=O)NOCCO)cc21 [Selumetinib] (first compound max 10 µM, 7x7, partner max 10 µM)', -0.0562);

Proceeding to the next molecule to report its Bliss excess.
Incoming: Give the measured Bliss excess for CC1(C)CCC(CN2CCN(c3ccc(C(=O)NS(=O)(=O)c4ccc(NCC5CCOCC5)c([N+](=O)[O-])c4)c(Oc4cnc5[nH]ccc5c4)c3)CC2)=C(c2ccc(Cl)cc2)C1 [Venetoclax] + C1CN(CCC1(C(=O)N[C@@H](CCO)C2=CC=C(C=C2)Cl)N)C3=NC=NC4=C3C=CN4 [Capivasertib] (first compound max 1 µM, 7x7, partner max 3 µM)
Outgoing: 0.0099

* * *

- System: SJSA-1 (Osteosarcoma)
- experimental-protocol: combination Emax (second highest fraction inhibited in the dose matrix, 72 h); higher = more inhibition; extreme values may be limits of the assay
test-readout: combination Emax
Answer with the value's number alone.

INSERT INTO results (molecule, reported_result) VALUES
  ('C[C@@H]1COCCN1c1cc(C2([S@](C)(=N)=O)CC2)nc(-c2ccnc3[nH]ccc23)n1 [AZD6738] + C1CC(C1)(C(=O)[O-])C(=O)[O-].N.N.[Pt+2] [Carboplatin] (first compound max 10 µM, 7x7, partner max 10 µM)', 0.477);

Proceeding to the next molecule to report its combination Emax.
Incoming: Give the measured combination Emax for COc1cccc(OCCCN)c1-c1cc(Nc2cnc(C#N)cn2)n[nH]1 [Prexasertib] + CCc1c2c(nc3ccc(O)cc13)-c1cc3c(c(=O)n1C2)COC(=O)[C@]3(O)CC [SN-38] (first compound max 1 µM, 7x7, partner max 0.3 µM)
Outgoing: 0.743

* * *

- System: CHSA8926 (Chondrosarcoma)
- experimental-protocol: combination Emax (second highest fraction inhibited in the dose matrix, 72 h); higher = more inhibition; extreme values may be limits of the assay
Some compounds, each annotated with its measured combination Emax.

Sample answers from the record:
INSERT INTO measurements (compound, reported_result) VALUES
  ('Cc1c2c(nn1C)CSCc1cc(n(C)n1)CSc1cc(c3ccccc3c1)OCCCc1c(C(=O)O)n(C)c3c-2c(Cl)ccc13 [AZD5991] + C=CCn1c(=O)c2cnc(Nc3ccc(N4CCN(C)CC4)cc3)nc2n1-c1cccc(C(C)(C)O)n1 [AZD1775] (first compound max 1 µM, partner max 1 µM)', 0.679),
  ('CC1(C)CCC(CN2CCN(c3ccc(C(=O)NS(=O)(=O)c4ccc(NCC5CCOCC5)c([N+](=O)[O-])c4)c(Oc4cnc5[nH]ccc5c4)c3)CC2)=C(c2ccc(Cl)cc2)C1 [Venetoclax] + COc1cc(Nc2ncc3c(n2)-c2ccc(Cl)cc2C(c2c(F)cccc2OC)=NC3)ccc1C(=O)O [Alisertib] (first compound max 1 µM, 7x7, partner max 10 µM)', 0.531),
  ('CCc1c2c(nc3ccc(O)cc13)-c1cc3c(c(=O)n1C2)COC(=O)[C@]3(O)CC [SN-38] + O=C(c1cc(Cc2n[nH]c(=O)c3ccccc23)ccc1F)N1CCN(C(=O)C2CC2)CC1 [Olaparib] (first compound max 0.3 µM, 7x7, partner max 10 µM)', 0.452);

Proceeding to the next compound to report its combination Emax.
Incoming: Give the measured combination Emax for Cn1cnc2c(F)c(Nc3ccc(Br)cc3Cl)c(C(=O)NOCCO)cc21 [Selumetinib] + C[C@@H]1COCCN1C2=NC(=NC(=C2)C3(CC3)[S@](=N)(=O)C)C4=C5C=CNC5=NC=C4 [AZD6738] (first compound max 10 µM, 7x7, partner max 10 µM)
Outgoing: 0.404
